- Measurement notes: chemical genetic growth profiling, strain panel (AID 1159580);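 also: tested at 20 µM; growth read once vehicle control cultures reached saturation at 30 °C; 1 = growth at the plate median or of vehicle wells; lower values mean less growth of the strain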
- Reported conditions: S. cerevisiae deletion strains, growth OD, locus YGR092W, strain DBF2
Out of some 5,500 compounds screened, about 2,000 (36%) were called active. Roughly 18% stayed inconclusive and do not appear here. Rule as the data show it: active = normalized growth mostly below about 0.91 (no sharp cut-off); inconclusive = no clear call, values can overlap the other calls; inactive = mostly above about 0.92. The list shows a part of the results.
The reply should be one of these categories: class 1 for active, class 0 for inactive

[[record]]
compound = "O=C(Nc1ccccc1Sc1ccc([N+](=O)[O-])cc1[N+](=O)[O-])C(Cl)(Cl)Cl"
qualitative_label = "class 0"

[[record]]
compound = "COC(=O)c1cnn(-c2c(Cl)cccc2Cl)c1C=C(C#N)C#N"
qualitative_label = "class 0"

[[record]]
compound = "O=C(CSCc1csc2ccccc12)Nc1ccc(F)c(Cl)c1"
qualitative_label = "class 0"

[[record]]
compound = "Cc1nc(-c2ccccn2)nc(N(C)Cc2ccccc2)c1Cl"
qualitative_label = "class 0"

[[record]]
compound = "Nc1ccccc1C(=O)N/N=C\\c1cc(Br)ccc1O"
qualitative_label = "class 1"


Exam item: Hi, do you know how O=C(NCCNc1ncc(C(F)(F)F)cc1Cl)C(F)(F)Sc1ccccc1 came out in this test?
Marked response: class 0

Exam item: Hi, do you know how O=C(NCC(c1ccccc1)c1c[nH]c2ccccc12)c1ccc(C(F)(F)F)cc1 (stereo unspecified) came out in this test?
Marked response: class 0

Exam item: Hi, do you know how COc1ccc2nc3ccccc3c(N)c2c1 came out in this test?
Marked response: class 1

Exam item: Hi, do you know how O=S(=O)(NC(=S)Nc1ccc(Cl)c(Cl)c1)c1ccccc1 came out in this test?
Marked response: class 0

Exam item: Hi, do you know how Cc1ccc(S(=O)(=O)n2c(Sc3ccc([N+](=O)[O-])cc3[N+](=O)[O-])nc3cc(C)ccc32)cc1 came out in this test?
Marked response: class 0

Exam item: Hi, do you know how O=C(N/N=C\c1cc(Br)ccc1O)c1ccccc1Oc1ccccc1 came out in this test?
Marked response: class 0

----------
- Measurement notes: chemical genetic growth profiling, strain panel (AID 1159580);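 also: tested at 20 µM; growth read once vehicle control cultures reached saturation at 30 °C; 1 = growth at the plate median or of vehicle wells; lower values mean less growth of the strain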
- Reported conditions: S. cerevisiae deletion strains, growth OD, locus YBR023C, strain chs3, hits give low values
Among all 5,500 compounds or so, about 2,000 (36%) were called active. Another 18% or so got no clear call; they are omitted. The list shows a part of the results.
Measured property: normalized growth
Give bare numbers.

# batch size: 6; output normalized growth per entry
1. C#C[C@]1(OC(C)=O)CCC2C3CCC4=CC(=O)CC[C@@H]4C3CC[C@@]21C (stereo not given in full)
2. Nc1ccc(S(=O)(=O)Nc2ccnn2-c2ccccc2)cc1
3. Nc1c2ccccc2nc2ccccc12
4. C#C[C@]1(O)CCC2C3CCC4=C(CCC(=O)C4)C3CC[C@@]21C (stereo not given in full)
5. C#C[C@]1(O)CCC2C3CCC4=CC(=O)CC[C@@H]4C3CC[C@@]21C (stereo not given in full)
6. OC(CCN1CCCCC1)(c1ccccc1)C1CC2C=CC1C2 (stereo not given)

Marked response:
0.976
0.999
0.759
0.986
0.987
0.999

# batch size: 2; output normalized growth per entry
1. COc1ccc2[nH]cc(CCN)c2c1
2. O=C1c2c(O)cccc2Cc2cccc(O)c21

Marked response:
[1, 0.988]

# batch size: 6; output normalized growth per entry
1. COC(=O)C[C@H]1C(C)(C)C(=O)[C@@H]2CC3C4=CC(=O)O[C@@H](c5ccoc5)[C@]4(C)CCC3[C@@]1(C)C2=O (stereo not given in full)
2. COc1cccc2c1C(=O)c1c(O)c3c(c(O)c1C2=O)C[C@@](O)(C(=O)CO)C[C@@H]3O[C@H]1C[C@H](N)[C@@H](O)[C@H](C)O1
3. COc1cccc2c1C(=O)c1c(O)c3c(c(O)c1C2=O)C[C@@](O)(C(=O)CO)C[C@@H]3OC1C[C@H](N)[C@H](O)[C@H](C)O1 (stereo not given in full)
4. NC12CC3CC(CC(C3)C1)C2
5. Cc1cn([C@H]2C[C@H](N=[N+]=[N-])[C@@H](CO)O2)c(=O)[nH]c1=O
6. CC(=O)/C=C\[C@@H]1[C@@]2(C)CCCC(C)(C)C2CC[C@@]1(C)O (stereo not given in full)

Marked response:
0.99
0.894
0.676
1.01
1
0.977

# batch size: 3; output normalized growth per entry
1. CNCc1ccccc1
2. C#C[C@]1(O)CCC2C3CCC4=CC(=O)CC[C@@H]4C3CC[C@@]21CC (stereo not given in full)
3. C[C@]12CCC(=O)C=C1CCC1C2[C@@H](O)C[C@@]2(C)C1CC[C@]2(O)C(=O)CO (stereo not given in full)

Marked response:
[1.03, 0.983, 0.979]

# batch size: 3; output normalized growth per entry
1. CC(C)CCCC1(C)C=Cc2c(O)c3c(c(CCC(C)C)c2O1)OC12C(CC4CC1C(C)(C)OC2(CCC(C)C(=O)O)C4O)C3=O (stereo not given)
2. COc1cccc2c1C(=O)c1c(O)c3c(c(O)c1C2=O)C[C@@](O)(C(C)=O)C[C@@H]3O[C@H]1C[C@H](N)[C@H](O)[C@H](C)O1
3. C#C[C@]1(OC(C)=O)CCC2C3CCC4=C/C(=N\O)CCC4C3CC[C@@]21CC (stereo not given in full)

Marked response:
1: 0.998; 2: 0.953; 3: 0.612
